- Target desc: MMP-1 (Homo sapiens, UniProt P03956)
- Sequence (P03956 100-469): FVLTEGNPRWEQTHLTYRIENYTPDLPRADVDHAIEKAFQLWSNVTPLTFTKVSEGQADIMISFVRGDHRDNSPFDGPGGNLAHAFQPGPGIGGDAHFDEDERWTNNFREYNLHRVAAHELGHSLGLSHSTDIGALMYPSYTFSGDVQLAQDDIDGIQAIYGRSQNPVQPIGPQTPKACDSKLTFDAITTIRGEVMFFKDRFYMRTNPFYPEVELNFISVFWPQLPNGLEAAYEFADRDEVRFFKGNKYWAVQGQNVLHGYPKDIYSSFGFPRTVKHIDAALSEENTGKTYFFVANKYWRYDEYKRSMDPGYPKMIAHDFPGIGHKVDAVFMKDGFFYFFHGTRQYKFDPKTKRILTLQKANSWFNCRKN
- Assay name: MMP-1 inhibition (thiopeptide or fluorescent peptide substrate assay)
- Type: biochemical
pIC50: −log10 of the molar value.
Observation type: pIC50

INSERT INTO measurements (compound, observation_type, readout_value) VALUES
  ('COc1ccc(S(=O)(=O)N(C)c2c(C)cc(C=CC(=O)N(C)C)cc2C(=O)O)cc1 [Example 214]', 'pIC50', 6.37);

###

- Target desc: MMP-1 (Homo sapiens)
- Assay name: MMP-1 inhibition (thiopeptide or fluorescent peptide substrate assay)
- Format: biochemical
- Stated conditions: read-out: MMP-1 IC50
pIC50: −log10 of the molar value. Counter-ions that a name gives are not always drawn.
Measured pIC50 by item
Observation type: pIC50

INSERT INTO measurements (compound, measurement_qualifier, readout_value) VALUES
  ('COc1ccc(S(=O)(=O)N(Cc2cccnc2)c2c(C)cc(-c3ccsc3)cc2C(=O)NO)cc1 [Example 398, hydrochloride salt]', '=', 7.07),
  ('COc1ccc(S(=O)(=O)N(Cc2ccccc2)c2c(C)cc(N(C)C)cc2C(=O)NO)cc1 [Example 389]', '=', 7.20),
  ('COc1ccc(S(=O)(=O)N(Cc2ccccc2)c2c(OCCO[Si](C)(C)C(C)(C)C)cccc2C(=O)NO)cc1 [Example 344]', '=', 5.93),
  ('COc1ccc(S(=O)(=O)N(Cc2ccc(C(=O)NCCN3CCCCC3)cc2)c2c(C)cccc2C(=O)NO)cc1 [Example 396]', '=', 6.74),
  ('COc1ccc(S(=O)(=O)N(Cc2ccccc2)c2c(C)cc(C)cc2C(=O)NO)cc1 [Example 68]', '=', 7.09),
  ('COc1ccc(-c2cc(C)c(N(Cc3cccnc3)S(=O)(=O)c3ccc(OC)cc3)c(C(=O)NO)c2)cc1 [Example 401, hydrochloride salt]', '=', 6.75),
  ('COc1ccc(S(=O)(=O)N(Cc2ccccc2)c2c(OC(C)(C)C(=O)NO)cccc2C(=O)NO)cc1 [Example 197]', '=', 6.15),
  ('COc1ccc(S(=O)(=O)N(Cc2ccccc2)c2c(C(=O)NO)cc(OC)c(OC)c2OC)cc1 [Example 156]', '<', 6.00),
  ('COc1ccc(S(=O)(=O)N(Cc2ccc(OCCN3CCCCC3)cc2)c2c(C)cccc2C(=O)NO)cc1 [Example 393]', '=', 6.75),
  ('COc1ccc(S(=O)(=O)N(C)c2c(CCC(=O)NO)cccc2C(=O)NO)cc1 [Example 350]', '=', 6.35),
  ('COc1ccc(S(=O)(=O)N(C)c2c(C)cc(CCc3ccc(-c4ccccc4)cc3)cc2C(=O)NO)cc1 [Example 355]', '=', 6.15),
  ('COc1ccc(S(=O)(=O)N(Cc2ccccc2)c2c(OCCO)cccc2C(=O)NO)cc1 [Example 345]', '=', 5.94),
  ('COc1ccc(S(=O)(=O)N(Cc2ccccc2)c2c(C#N)cc(C)cc2C(=O)NO)cc1 [Example 179]', '=', 6.17),
  ('CCN(CC)Cc1cccc(C(=O)NO)c1N(C)S(=O)(=O)c1ccc(OC)cc1 [Example 191]', '=', 5.91),
  ('COc1ccc(S(=O)(=O)N(C)c2c(CN3CCN(C)CC3)cccc2C(=O)NO)cc1 [Example 194]', '=', 6.51),
  ('CCCN(c1c(C)cc(C)cc1C(=O)NO)S(=O)(=O)c1ccc(OC)cc1 [Example 117]', '=', 6.94),
  ('Cc1cc(C)c(N(Cc2ccccc2)S(=O)(=O)c2ccc(OCc3ccccc3)cc2)c(C(=O)NO)c1 [Example 74]', '<', 6.00),
  ('COc1ccc(S(=O)(=O)N(Cc2ccc(Br)cc2)c2c(C)cc(C)cc2C(=O)NO)cc1 [Example 120]', '=', 6.62),
  ('COc1ccc(S(=O)(=O)N(Cc2ccccc2)c2c(CN3CCN(C)CC3)cccc2C(=O)NO)cc1 [Example 329]', '=', 6.50),
  ('COc1ccc(S(=O)(=O)N(Cc2cccnc2)c2c(C)cc(-c3cc4ccccc4s3)cc2C(=O)NO)cc1 [Example 402, hydrochloride salt]', '=', 6.27),
  ('COc1ccc(S(=O)(=O)N(Cc2ccc(OCCN3CCCCC3)cc2)c2c(C)cc(Br)cc2C(=O)NO)cc1 [Example 395]', '=', 7.46),
  ('COc1ccc(S(=O)(=O)N(Cc2cccnc2)c2c(Br)cc(C)cc2C(=O)NO)cc1 [Example 138]', '=', 6.59),
  ('COc1ccc(S(=O)(=O)N(Cc2cccnc2)c2c(C)cc(C=CC(=O)N(C)C)cc2C(=O)NO)cc1 [Example 227]', '=', 6.71),
  ('COc1ccc(S(=O)(=O)N(Cc2cccnc2)c2c(COC3CCCCO3)cccc2C(=O)NO)cc1 (centres unmarked) [Example 339]', '=', 6.67),
  ('COc1ccc(S(=O)(=O)N(Cc2cccnc2)c2c(C)cc(C)cc2C(=O)NO)cc1 [Example 88]', '=', 6.88),
  ('Cc1ccc(CN(c2c(C)cccc2C(=O)NO)S(=O)(=O)c2ccc(-c3ccccn3)s2)cc1C [Example 408]', '=', 5.46),
  ('CCCCCCCCN(C)C(=O)C=Cc1cc(C)c(N(C)S(=O)(=O)c2ccc(OC)cc2)c(C(=O)NO)c1 [Example 207]', '=', 5.95),
  ('COc1ccc(S(=O)(=O)N(Cc2cccnc2)c2c(C)cc(-c3ccc(C(C)=O)s3)cc2C(=O)NO)cc1 [Example 264]', '=', 6.80),
  ('COc1ccc(S(=O)(=O)N(C)c2c(CCC(=O)NO)cc(Br)cc2C(=O)NO)cc1 [Example 349]', '=', 6.40),
  ('COc1ccc(S(=O)(=O)N(Cc2ccccc2)c2c(OCC(=O)NO)cccc2C(=O)NO)cc1 [Example 54]', '=', 7.62),
  ('COc1ccc(S(=O)(=O)N(Cc2cccnc2)c2c(C(=O)NO)cc(C)cc2-c2ccco2)cc1 [Example 186]', '=', 7.43),
  ('COc1ccc(S(=O)(=O)N(Cc2cccnc2)c2c(C)cc(-c3sccc3C=NO)cc2C(=O)NO)cc1 [Example 258]', '=', 6.77);

The measurements presented in this section are drawn from patent EP0938471B1.
